Consider the following molecules; for each one, report its tissue uptake at 120 h.
# assay remarks: Biodistribution of 177Lu-labeled αMSH analogues in mice bearing B16F10 mouse melanoma
# Assay type: in vivo, C57BL/6J mice
# condition set: mouse, thyroid, iv, total radioactivity; 120 h p.i., C57BL/6J mice, B16F10 melanoma; read-out: Biodistribution, Thyroid
Output spec: scalar in %ID/g, unitless text.

Which value of tissue uptake at 120 h has been reported for CCCC[C@H](NC(=O)CN1CCC(NC(=O)[C@H](CCCCNC(=O)CN2CCN(CC(=O)O)CCN(CC(=O)O)CCN(CC(=O)O)CC2)NC(=O)[C@H](CCC(=O)O)NC(=O)CCCc2ccc(I)cc2)CC1)C(=O)N[C@H]1CC(=O)NCCCC[C@@H](C(N)=O)N(C)C(=O)[C@H](Cc2c[nH]c3ccccc23)NC(=O)[C@H](CCCNC(=N)N)N(C)C(=O)[C@@H](Cc2ccccc2)NC(=O)[C@H](Cc2c[nH]cn2)NC1=O [^177Lu-labeled CCZ01118, metal not drawn] in the records?
1.03

Which value of tissue uptake at 120 h has been reported for CCCC[C@H](NC(=O)CN1CCC(NC(=O)CN2CCN(CC(=O)O)CCN(CC(=O)O)CCN(CC(=O)O)CC2)CC1)C(=O)N[C@H]1CC(=O)NCCCC[C@@H](C(N)=O)N(C)C(=O)[C@H](Cc2c[nH]c3ccccc23)NC(=O)[C@H](CCCNC(=N)N)N(C)C(=O)[C@@H](Cc2ccccc2)NC(=O)[C@H](Cc2c[nH]cn2)NC1=O [^177Lu-labeled CCZ01106, metal not drawn] in the records?
0.05

Which value of tissue uptake at 120 h has been reported for CCCC[C@H](NC(=O)CN1CCC(NC(=O)CN2CCN(CC(=O)O)CCN(CC(=O)O)CCN(CC(=O)O)CC2)CC1)C(=O)N[C@H]1CC(=O)NCCCC[C@@H](C(N)=O)N(C)C(=O)[C@H](Cc2c[nH]c3ccccc23)N(C)C(=O)[C@H](CCCNC(=N)N)N(C)C(=O)[C@@H](Cc2ccccc2)NC(=O)[C@H](Cc2c[nH]cn2)N(C)C1=O [^177Lu-labeled CCZ01099, metal not drawn] in the records?
0.05

Which value of tissue uptake at 120 h has been reported for CCCC[C@H](NC(=O)CN1CCC(NC(=O)[C@H](CCCCNC(=O)CN2CCN(CC(=O)O)CCN(CC(=O)O)CCN(CC(=O)O)CC2)NC(=O)[C@H](CCC(=O)O)NC(=O)CCCc2ccc(I)cc2)CC1)C(=O)N[C@H]1CC(=O)NCCCC[C@@H](C(N)=O)NC(=O)[C@H](Cc2c[nH]c3ccccc23)NC(=O)[C@H](CCCNC(=N)N)NC(=O)[C@@H](Cc2ccccc2)NC(=O)[C@H](Cc2c[nH]cn2)NC1=O [^177Lu-labeled CCZ01082, metal not drawn] in the records?
0.86

Which value of tissue uptake at 120 h has been reported for CCCC[C@H](NC(=O)CN1CCC(NC(=O)[C@H](CCCCNC(=O)CN2CCN(CC(=O)O)CCN(CC(=O)O)CCN(CC(=O)O)CC2)NC(=O)[C@H](CCC(=O)O)NC(=O)CCCc2ccc(I)cc2)CC1)C(=O)N[C@H]1CC(=O)NCCCC[C@@H](C(N)=O)N(C)C(=O)[C@H](Cc2c[nH]c3ccccc23)N(C)C(=O)[C@H](CCCNC(=N)N)N(C)C(=O)[C@@H](Cc2ccccc2)NC(=O)[C@H](Cc2c[nH]cn2)N(C)C1=O [^177Lu-labeled CCZ01088, metal not drawn] in the records?
0.15
